From: patent US12617813B2

- testedSystem: HDAC8 (Homo sapiens, UniProt Q9BY41)
- Sequence (Q9BY41 whole entry): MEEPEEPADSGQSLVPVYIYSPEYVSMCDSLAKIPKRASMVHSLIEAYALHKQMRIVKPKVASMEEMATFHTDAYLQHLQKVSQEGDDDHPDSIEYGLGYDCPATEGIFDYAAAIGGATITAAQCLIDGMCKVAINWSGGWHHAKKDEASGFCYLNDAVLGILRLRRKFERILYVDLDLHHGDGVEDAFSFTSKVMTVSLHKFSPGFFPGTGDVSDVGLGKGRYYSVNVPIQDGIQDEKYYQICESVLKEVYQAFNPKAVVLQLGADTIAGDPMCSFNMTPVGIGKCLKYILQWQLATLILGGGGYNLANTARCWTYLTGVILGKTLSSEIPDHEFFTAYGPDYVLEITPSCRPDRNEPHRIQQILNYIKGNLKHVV
- protocolNotes: HDAC inhibition, HDAC8
- Type: biochemical
I'd appreciate it if you could supply IC50 values for the items below.
Numeric answer only, unit nM assumed.

Consider the molecule O=C(CCCCCCn1cc(-c2ccc3cc(O[C@H]4O[C@H](CO)[C@@H](O)[C@H](O)[C@@H]4O)ccc3c2)nn1)NO and give its measured IC50.
319

Consider the molecule O=C(CCCCCn1cc(-c2ccc(O[C@H]3O[C@H](CO)[C@@H](O)[C@H](O)[C@@H]3O)cc2)nn1)NO and give its measured IC50.
3590

Consider the molecule O=C(CCCCCCn1cc(-c2ccc(O)cc2)nn1)NO [STR-V-183, reference compound] and give its measured IC50.
1960
